- SUBJECT_OF_TEST: Human full-length SHP2 recombinant protein (Homo sapiens (Human), UniProt Q06124)
- Sequence (Q06124 whole entry): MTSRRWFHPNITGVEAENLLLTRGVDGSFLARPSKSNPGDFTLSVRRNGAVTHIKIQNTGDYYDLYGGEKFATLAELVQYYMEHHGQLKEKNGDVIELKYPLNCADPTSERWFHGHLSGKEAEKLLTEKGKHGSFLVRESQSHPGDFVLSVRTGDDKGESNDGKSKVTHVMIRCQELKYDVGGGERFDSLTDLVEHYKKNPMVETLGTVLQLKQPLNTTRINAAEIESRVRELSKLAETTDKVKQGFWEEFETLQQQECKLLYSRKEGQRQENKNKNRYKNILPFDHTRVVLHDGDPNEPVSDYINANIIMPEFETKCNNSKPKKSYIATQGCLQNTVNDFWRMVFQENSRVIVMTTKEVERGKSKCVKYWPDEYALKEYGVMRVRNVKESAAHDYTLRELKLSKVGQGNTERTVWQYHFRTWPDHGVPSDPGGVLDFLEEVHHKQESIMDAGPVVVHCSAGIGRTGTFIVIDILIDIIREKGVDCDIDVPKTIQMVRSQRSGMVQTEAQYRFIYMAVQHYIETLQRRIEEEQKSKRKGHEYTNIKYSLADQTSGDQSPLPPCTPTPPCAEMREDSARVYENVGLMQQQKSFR
- PROCEDURE_DETAILS: Assay of full-length SHP2 phosphatase activity
- REPORTED_CONDITIONS: DiFMUP substrate, with activating peptide
Overview of recorded IC50 for various compounds
Answer in nM, number only, no unit symbol.

Example entries begin here.
compound="Cc1c(N2CCC3(CC2)Cc2ccc(C#CCN(C)C)cc2[C@H]3N)nc(C)n(-c2cccc(Cl)c2Cl)c1=O (atropisomer, axis not shown) [Compound 51]" readout_value=1
compound="C#Cc1ccc2c(c1)[C@@H](N)C1(CCN(c3cc(=O)n(-c4cccc(OC)c4Cl)c(C)n3)CC1)C2 (atropisomer, axis not shown) [Compound 110]" readout_value=249

// next item, IC50 requested
// query IC50 value for entry C#Cc1ccc2c(c1)[C@@H](N)C1(CCN(c3nc(N)c(Sc4ccnc(N)c4Cl)c(=O)n3C)CC1)C2 [Compound 282]
1
